# Test system: Plasmodium falciparum
# protocol.text: Resistance index, ratio of EC50 for chloroquine, mefloquine, pyrimethamine and atovaquone-resistant Plasmodium falciparum TM90-C2B to EC50 for chloroquine and pyrimethamine-resistant Plasmodium falciparum W2
# Format: functional
Param threshold (2) applies to Ratio EC50; output 1 when value >= threshold, 0 when value < threshold.

Reference set, count: 6
> print(dat)
                                   molecule  class.label
1  O=C1CC(c2ccc(Cl)cc2Cl)Cc2nc3ccc(Cl)cc3c(O)c21 (stereo not drawn)            1
2       O=c1c2c([nH]c3cc(Cl)cc(Cl)c13)CCCC2            0
3    O=c1c2c([nH]c3ccc(-c4cccnc4)cc13)CCSC2            0
4       CC1(C)CCc2c([nH]c3ccc(Cl)cc3c2=O)C1            1
5               Oc1c2c(nc3ccc(Br)cc13)CCCC2            0
6         O=c1c2c([nH]c3c(F)ccc(F)c13)CCCC2            0

Ask: Does Ratio EC50 meet or surpass 2 for CN(C)c1ccc(-c2ccc3c(=O)c4c([nH]c3c2)CCCC4)cc1 ?
Reply: 0

Ask: Does Ratio EC50 meet or surpass 2 for COc1cc(OC)c2c(=O)c3c([nH]c2c1)CCCC3 ?
Reply: 0

Ask: Does Ratio EC50 meet or surpass 2 for CC(C)c1ccc2[nH]c3c(c(=O)c2c1)CCCC3 ?
Reply: 0

Ask: Does Ratio EC50 meet or surpass 2 for O=c1c2c([nH]c3c(F)cccc13)CCCC2 ?
Reply: 1

Ask: Does Ratio EC50 meet or surpass 2 for CC1(C)CCc2[nH]c3ccccc3c(=O)c2C1 ?
Reply: 0

Ask: Does Ratio EC50 meet or surpass 2 for CC1(C)CCc2[nH]c3c(Cl)cccc3c(=O)c2C1 ?
Reply: 0

// provenance: ChEMBL document CHEMBL1799910
